The origin of these recorded values is patent US20200223889A1.

molecular target: human melanocortin 4 receptor (human) (UniProt P32245); experiment: cell-based or functional assay
Sequence (P32245 whole entry): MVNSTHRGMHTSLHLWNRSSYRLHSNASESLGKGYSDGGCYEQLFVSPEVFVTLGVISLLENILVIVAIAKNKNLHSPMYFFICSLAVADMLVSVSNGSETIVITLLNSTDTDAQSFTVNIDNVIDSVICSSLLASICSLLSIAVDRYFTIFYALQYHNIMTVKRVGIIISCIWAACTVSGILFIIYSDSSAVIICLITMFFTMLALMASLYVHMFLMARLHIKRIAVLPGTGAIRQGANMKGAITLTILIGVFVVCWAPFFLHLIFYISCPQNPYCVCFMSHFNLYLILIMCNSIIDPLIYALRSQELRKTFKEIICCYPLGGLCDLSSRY
Positions of bridges follow the written chain, without caps; N, C: chain ends. Non-standard residues stand in square brackets, D forms with d. Hyp = O=C(O)[C@@H]1C[C@@H](O)CN1; Aib = CC(C)(N)C(=O)O
MC4R cAMP EC50 values for the binders below.
Could you give me the number in nM? Just the number is fine.

cyclo(CH[dF]RW[dA]CH[dF]RW[dA]) (disulfide 1-7; SMILES C[C@H]1NC(=O)[C@H](Cc2c[nH]c3ccccc23)NC(=O)[C@H](CCCNC(=N)N)NC(=O)[C@@H](Cc2ccccc2)NC(=O)[C@H](Cc2c[nH]cn2)NC(=O)[C@@H]2CSSC[C@H](NC1=O)C(=O)N[C@@H](Cc1c[nH]cn1)C(=O)N[C@H](Cc1ccccc1)C(=O)N[C@@H](CCCNC(=N)N)C(=O)N[C@@H](Cc1c[nH]c3ccccc13)C(=O)N[C@H](C)C(=O)N2) [Chem. 6]    0.06
CXHFXWCXHFXW (Aib 2, 8; D-Phe 4, 10; Cit 5, 11; disulphide Cys1-Cys7; head-to-tail amide Cys1-Trp12) [Chem. 41]    1.34
cyclo(C[dV]H[dF]RWC[dV]H[dF]RW) (disulfide 1-7; SMILES CC(C)[C@H]1NC(=O)[C@@H]2CSSC[C@H](NC(=O)[C@H](Cc3c[nH]c4ccccc34)NC(=O)[C@H](CCCNC(=N)N)NC(=O)[C@@H](Cc3ccccc3)NC(=O)[C@H](Cc3c[nH]cn3)NC1=O)C(=O)N[C@H](C(C)C)C(=O)N[C@@H](Cc1c[nH]cn1)C(=O)N[C@H](Cc1ccccc1)C(=O)N[C@@H](CCCNC(=N)N)C(=O)N[C@@H](Cc1c[nH]c3ccccc13)C(=O)N2) [Chem. 34]    0.12
cyclo(C[dK]H[dF]HWC[dK]H[dF]HW) (disulfide 1-7; SMILES NCCCC[C@H]1NC(=O)[C@@H]2CSSC[C@H](NC(=O)[C@H](Cc3c[nH]c4ccccc34)NC(=O)[C@H](Cc3c[nH]cn3)NC(=O)[C@@H](Cc3ccccc3)NC(=O)[C@H](Cc3c[nH]cn3)NC1=O)C(=O)N[C@H](CCCCN)C(=O)N[C@@H](Cc1c[nH]cn1)C(=O)N[C@H](Cc1ccccc1)C(=O)N[C@@H](Cc1c[nH]cn1)C(=O)N[C@@H](Cc1c[nH]c3ccccc13)C(=O)N2) [Chem. 86]    14.5

Q) Entry under review: cyclo(C[Aib][Hyp][dF]RWC[Aib][Hyp][dF]RW) (disulfide 1-7; SMILES CC1(C)NC(=O)[C@@H]2CSSC[C@H](NC(=O)[C@H](Cc3c[nH]c4ccccc34)NC(=O)[C@H](CCCNC(=N)N)NC(=O)[C@@H](Cc3ccccc3)NC(=O)[C@@H]3C[C@@H](O)CN3C1=O)C(=O)NC(C)(C)C(=O)N1C[C@H](O)C[C@H]1C(=O)N[C@H](Cc1ccccc1)C(=O)N[C@@H](CCCNC(=N)N)C(=O)N[C@@H](Cc1c[nH]c3ccccc13)C(=O)N2) [Chem. 38] . Reported MC4R cAMP EC50?
A) 4.22
